Hello, the source for this data is PubChem BioAssay AID1159580, in case you need it.

assay.summary: chemical genetic growth profiling, strain panel (AID 1159580);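 further: tested at 20 µM; growth read once vehicle control cultures reached saturation at 30 °C; 1 = growth at the plate median or of vehicle wells; lower values mean less growth of the strain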
condition.summary: S. cerevisiae deletion strains, growth OD, locus YLL041C, strain sdh2, active compounds read low
The whole screen tested about 5,500 compounds, of which about 2,000 (36%) were called active. Another 18% or so got no clear call; they are omitted. This is one part of the list.

compound: CCCCCC(C)N (centres undefined)
normalized growth: 1.02
--
compound: CCN(CC)C(=S)SSC(=S)N(CC)CC
normalized growth: 0.0577
--
compound: CCc1ccc(CCOc2ccc(CC3SC(=O)NC3=O)cc2)nc1 (centres undefined)
normalized growth: 1.01
--
compound: COc1cccc([C@]2(O)CCCC[C@H]2CN(C)C)c1
normalized growth: 0.971
--
compound: CC(C)(CO)C(O)C(=O)NCCCO (centres undefined)
normalized growth: 1.02
--
compound: Cc1cc(OC(=O)N2CCCCC2)c(C(C)C)cc1[N+](C)(C)C
normalized growth: 1.03
--
compound: O=c1ccc2cc(O)c(O)cc2o1
normalized growth: 0.995
--
compound: NC(N)=Nc1nc(CSCCC(N)=NS(N)(=O)=O)cs1
normalized growth: 0.995
--
compound: CN1CCc2cc3c(cc2C1O)OCO3 (centres undefined)
normalized growth: 0.999
--
compound: CC(C)N(C(=O)CCl)c1ccccc1
normalized growth: 1.02
--
compound: O=c1ccc2ccccc2o1
normalized growth: 0.998
--
compound: COc1ccc(C(=O)c2ccccc2)c(O)c1
normalized growth: 0.861
--
compound: C[C@@H](N)CO
normalized growth: 0.997
--
compound: CO[C@H]1C[C@H](O[C@H]2[C@H](C)[C@@H](OC3O[C@H](C)C[C@H](N(C)C)[C@H]3O)[C@@H](C)C[C@]3(CO3)C(=O)[C@H](C)[C@@H](O)[C@@H](C)[C@@H](C)OC(=O)[C@@H]2C)O[C@@H](C)[C@@H]1O (some centres undefined)
normalized growth: 1
